Target or system RAC-beta serine/threonine-protein kinase (Homo sapiens, UniProt P31751); recorded quantity pIC50.
# pIC50: negative log10 of molar concentration; output just the value

| Test Smiles | Measure Name | Measured Value |
| --- | --- | --- |
| Cn1ncc(Cl)c1-c1cc(C(=O)N[C@@H]2CN[C@H](CCO)C[C@H]2c2ccc(F)c(F)c2)oc1Cl | pIC50 | 9.27 |

Please look at this compound and report its pIC50: CNC(=O)C[C@@H]1C[C@@H](c2ccc(F)c(F)c2)[C@H](NC(=O)c2cc(-c3c(Cl)cnn3C)c(Cl)o2)CN1
8.92

---

test: AUC (0 to t) in Sprague-Dawley rat at 25 mg/kg, ig measured up to 24 hrs by LC-MS/MS analysis; assay type: ADME, organism-based; parameters: time < 24 hr, dose 25 mg/kg, route […]; settings: in vivo, po
Measure Name: AUC(0-t) at 24 h (ng·h/mL)
Enter your answer as a number in ng·h/mL; do not include the unit.

Please look at this compound and report its AUC(0-t) at 24 h: Cn1ncc(Cl)c1-c1cc(C(=O)N[C@@H]2CN[C@H](CCO)C[C@H]2c2ccc(F)c(F)c2)oc1Cl
1010
